Values compiled from paper PMC2673211.

biological target: KATP channels in large DRG neurons (Rattus norvegicus, UniProt P70673+Q09429); construct: native KATP channels in large DRG neurons; endogenous in cells; host or cells: acutely dissociated large-diameter neurons from rat L4/L5 dorsal root ganglia (sham-operated or spinal nerve ligated animals); test: Excised inside-out (cell-free) patch-clamp recording of KATP channel activity; format: biochemical; conditions: presence of SNAP; SS neurons; n = 7; read-out: IC50 value for [ATP]i
Sequence (Q09429 whole entry): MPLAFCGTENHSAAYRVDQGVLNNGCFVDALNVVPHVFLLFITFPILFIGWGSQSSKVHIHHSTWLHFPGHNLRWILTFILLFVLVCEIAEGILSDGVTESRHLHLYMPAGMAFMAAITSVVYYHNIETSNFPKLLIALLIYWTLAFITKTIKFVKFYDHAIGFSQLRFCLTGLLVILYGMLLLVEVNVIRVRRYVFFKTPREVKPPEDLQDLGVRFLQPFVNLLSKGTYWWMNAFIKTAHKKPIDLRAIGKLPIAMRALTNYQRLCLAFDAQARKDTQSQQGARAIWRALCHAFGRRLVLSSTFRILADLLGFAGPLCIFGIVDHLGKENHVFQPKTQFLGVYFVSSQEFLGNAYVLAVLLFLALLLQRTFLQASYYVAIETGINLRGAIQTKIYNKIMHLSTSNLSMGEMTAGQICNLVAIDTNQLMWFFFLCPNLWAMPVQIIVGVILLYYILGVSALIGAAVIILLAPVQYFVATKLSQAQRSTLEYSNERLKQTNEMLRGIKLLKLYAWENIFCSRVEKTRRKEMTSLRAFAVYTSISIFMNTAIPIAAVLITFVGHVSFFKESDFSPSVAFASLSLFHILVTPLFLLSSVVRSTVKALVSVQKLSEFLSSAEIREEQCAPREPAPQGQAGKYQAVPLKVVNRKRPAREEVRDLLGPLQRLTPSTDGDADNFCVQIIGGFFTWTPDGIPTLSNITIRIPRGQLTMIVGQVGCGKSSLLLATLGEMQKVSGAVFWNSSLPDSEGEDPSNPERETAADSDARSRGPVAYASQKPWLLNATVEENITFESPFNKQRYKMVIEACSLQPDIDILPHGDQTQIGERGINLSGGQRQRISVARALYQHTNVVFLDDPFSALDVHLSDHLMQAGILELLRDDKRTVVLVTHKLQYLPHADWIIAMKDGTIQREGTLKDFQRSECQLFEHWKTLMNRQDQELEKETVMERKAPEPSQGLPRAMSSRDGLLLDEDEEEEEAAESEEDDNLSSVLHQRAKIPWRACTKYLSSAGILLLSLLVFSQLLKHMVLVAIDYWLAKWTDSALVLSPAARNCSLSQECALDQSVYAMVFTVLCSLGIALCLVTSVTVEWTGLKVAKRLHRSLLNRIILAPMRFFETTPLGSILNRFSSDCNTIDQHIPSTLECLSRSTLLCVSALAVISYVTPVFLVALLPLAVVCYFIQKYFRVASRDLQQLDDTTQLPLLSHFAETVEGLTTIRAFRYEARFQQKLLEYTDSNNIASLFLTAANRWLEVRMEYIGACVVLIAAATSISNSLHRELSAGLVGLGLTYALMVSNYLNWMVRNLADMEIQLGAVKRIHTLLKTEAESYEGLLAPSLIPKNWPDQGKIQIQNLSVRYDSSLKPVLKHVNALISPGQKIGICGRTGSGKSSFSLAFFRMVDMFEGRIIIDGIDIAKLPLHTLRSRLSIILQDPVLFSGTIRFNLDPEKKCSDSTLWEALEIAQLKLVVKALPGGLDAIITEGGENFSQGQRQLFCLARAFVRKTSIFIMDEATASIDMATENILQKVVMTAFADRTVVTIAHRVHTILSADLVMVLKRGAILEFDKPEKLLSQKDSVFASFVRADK
Sequence (P70673 whole entry): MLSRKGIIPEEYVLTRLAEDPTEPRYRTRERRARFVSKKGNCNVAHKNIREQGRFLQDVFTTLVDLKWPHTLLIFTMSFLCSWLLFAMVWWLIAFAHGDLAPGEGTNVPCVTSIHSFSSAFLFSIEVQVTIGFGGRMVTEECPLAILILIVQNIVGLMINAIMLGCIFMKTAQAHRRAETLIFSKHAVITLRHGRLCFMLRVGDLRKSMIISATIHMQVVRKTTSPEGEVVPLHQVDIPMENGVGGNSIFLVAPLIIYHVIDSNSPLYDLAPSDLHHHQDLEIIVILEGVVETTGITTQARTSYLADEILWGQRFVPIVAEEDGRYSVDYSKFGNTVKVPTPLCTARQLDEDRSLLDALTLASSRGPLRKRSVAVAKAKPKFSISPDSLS
Measure name: pIC50
Answers are plain numbers, as −log10 of the molar value.

Return pIC50 (reported value) for this compound: Nc1ncnc2c1ncn2[C@@H]1O[C@H](COP(=O)(O)OP(=O)(O)OP(=O)(O)O)[C@@H](O)[C@H]1O [ATP]
4.26
